Values from patent US20210139581A1

biological target: T1, human CD33 (human, UniProt P20138 18-259, limits assumed); experiment: SPR (BIAcore), Fab over CD33 on C1 chip
T1 construct: Human CD33 immobilized on the BLI sensor tip or the BIAcore C1 chip; also called Siglec-3
T1 sequence (P20138 18-259 limits assumed): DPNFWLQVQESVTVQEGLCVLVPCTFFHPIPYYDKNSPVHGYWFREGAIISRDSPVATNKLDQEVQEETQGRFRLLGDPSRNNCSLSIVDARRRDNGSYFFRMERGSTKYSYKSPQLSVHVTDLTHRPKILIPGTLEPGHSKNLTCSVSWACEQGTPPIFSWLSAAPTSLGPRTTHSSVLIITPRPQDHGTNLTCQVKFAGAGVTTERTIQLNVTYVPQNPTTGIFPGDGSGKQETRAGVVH

# Binder, koff, s⁻¹
records = [
    ("AB-H64 (antibody, V domains shown, Humanized variant of murine 2F5.1; also called parental humanized antibody) VH: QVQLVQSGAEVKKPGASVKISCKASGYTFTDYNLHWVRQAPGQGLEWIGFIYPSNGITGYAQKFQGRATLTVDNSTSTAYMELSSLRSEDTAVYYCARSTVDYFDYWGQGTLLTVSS VL: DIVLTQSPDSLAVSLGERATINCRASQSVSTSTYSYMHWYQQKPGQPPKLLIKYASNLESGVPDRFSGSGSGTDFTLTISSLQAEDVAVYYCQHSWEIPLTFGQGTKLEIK", 0.00221),
    ("AB-64.8 (antibody, V domains shown) VH: QVQLVQSGAEVKKPGASVKISCKASGYTFTDYNYHWVRQAPGQGLEWIGFIYPSNGITGYAQKFQHRATLTVDNSTSTAYMELSSLRSEDTAVYYCARSDVDYFDYWGQGTLLTVSS VL: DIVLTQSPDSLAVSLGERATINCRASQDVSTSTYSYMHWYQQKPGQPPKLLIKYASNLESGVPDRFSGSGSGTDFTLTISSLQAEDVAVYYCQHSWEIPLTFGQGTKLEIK", "4.8e-05"),
]
